# viability at 28.5 h, 10 µM annotations
ASSAY NOTES: in vitro
COND: human, hela cells, % viability

Solved cases below.
[[record]]
molecule = "O=C(CCn1c(C(F)F)cc2cccnc21)NCc1ccncc1"
measured_result = "103%"

[[record]]
molecule = "Cn1cc(C2CNCCN2C(=O)c2csc3ccccc23)cn1 (centres unmarked) [CBK304324C]"
measured_result = "108%"


Data request: Any idea what viability at 28.5 h, 10 µM was measured for O=C1Nc2ccc(-c3ccccc3F)cc2C(=O)N2CCN(C(=O)c3cccnc3)C[C@H]12 ?
Data returned: 111%

Data request: Any idea what viability at 28.5 h, 10 µM was measured for Cn1c(=O)n(C)c2cc(S(=O)(=O)NCC3(N)CCOCC3)ccc21 ?
Data returned: 113%

Data request: Any idea what viability at 28.5 h, 10 µM was measured for Cc1ccc(CN2CCNC(=O)C2CC(=O)O)o1 (centres unmarked) ?
Data returned: 91.8%

* * *

# viability at 28.5 h, 10 µM annotations
ASSAY NOTES: in vitro
COND: human, hela cells, % viability
# output: bare number, implied unit %

Solved cases below.
[[record]]
compound = "CCN(CC)CCCOC(=O)C(CCSC)c1ccccc1C (centres unmarked) [CBK023177C]"
u = "%"
measured_result = 91.7

[[record]]
compound = "O=C(OCn1nnc2ccccc2c1=O)c1cccc([N+](=O)[O-])c1"
u = "%"
measured_result = 104


Data request: Any idea what viability at 28.5 h, 10 µM was measured for Cc1ccc(Cl)c(OC(C)C(=O)NCC2(N3CCOCC3)CCSC2)c1 (centres unmarked) ?
Data returned: 110

Data request: Any idea what viability at 28.5 h, 10 µM was measured for O=C1N/C(=C/c2cccs2)C(=O)N1Cc1ccccc1F ?
Data returned: 109

Data request: Any idea what viability at 28.5 h, 10 µM was measured for O=C(Cc1ccsc1)N1C[C@@H]2CCCCN(CC3CC3)[C@@H]2C1 ?
Data returned: 104

* * *

# viability at 28.5 h, 10 µM annotations
ASSAY NOTES: in vitro
COND: human, hela cells, % viability
# output: bare number, implied unit %

Solved cases below.
[[record]]
molecule = "Cc1ccc(OCC(=O)Nc2ncc(Cc3ccc(F)cc3)s2)cc1 [CBK293930]"
parameter = "viability at 28.5 h, 10 µM"
measured_result = 82.2

[[record]]
molecule = "COc1c(O)ccc(/C=N\\NC(=O)C2COc3cc4ccccc4cc3O2)c1[N+](=O)[O-] (stereo not drawn) [CBK262836]"
parameter = "viability at 28.5 h, 10 µM"
measured_result = 86.9

[[record]]
molecule = "Cc1cc2c(cc1C)C(O)CC1(CCN(C(=O)C3CCCC3)CC1)O2 (stereo not drawn) [CBK282743]"
parameter = "viability at 28.5 h, 10 µM"
measured_result = 81.5

[[record]]
molecule = "COc1ccc(C(=O)NCC(O)CN2CCOCC2)cc1[N+](=O)[O-] (stereo not drawn) [CBK265643]"
parameter = "viability at 28.5 h, 10 µM"
measured_result = 105

[[record]]
molecule = "CC1CC(=O)c2cnc(Nc3ccccc3)nc2C1 (stereo not drawn) [CBK287884]"
parameter = "viability at 28.5 h, 10 µM"
measured_result = 92.4

[[record]]
molecule = "C/C(=N\\NC(=O)CCC(=O)Nc1ccccc1C)c1ccc(O)cc1O [CBK261946]"
parameter = "viability at 28.5 h, 10 µM"
measured_result = 94.2

[[record]]
molecule = "Cc1ccc(-c2csc(NC(=O)c3ccccc3C(=O)O)n2)cc1 [CBK072083]"
parameter = "viability at 28.5 h, 10 µM"
measured_result = 91.9

[[record]]
molecule = "CC(C)Nc1cncc(SCCN(C)C)n1 [CBK105292]"
parameter = "viability at 28.5 h, 10 µM"
measured_result = 90.6


Data request: Any idea what viability at 28.5 h, 10 µM was measured for Nc1ncc(-c2ccc(-c3ccccc3F)cc2)c2cccnc12 [CBK067597] ?
Data returned: 76.5

Data request: Any idea what viability at 28.5 h, 10 µM was measured for c1cnc(N2CCN(Cc3ccc4c(c3)OCO4)CC2)c(OCCN2CCOCC2)n1 [CBK082894T] ?
Data returned: 87.8

Data request: Any idea what viability at 28.5 h, 10 µM was measured for CN(c1ccccc1)S(=O)(=O)c1ccc(C(=O)NCc2cccnc2)cc1 [CBK297522] ?
Data returned: 95.5

Data request: Any idea what viability at 28.5 h, 10 µM was measured for Cc1cc2cc3n(c2nn1)N=C(Cl)CC3 [CBK019458] ?
Data returned: 91.4

Data request: Any idea what viability at 28.5 h, 10 µM was measured for CC1(C)CC(N2CN(C3CC(C)(C)NC(C)(C)C3)CN(C3CC(C)(C)NC(C)(C)C3)C2)CC(C)(C)N1 [CBK261985] ?
Data returned: 90.8

* * *

ASSAY NOTES: in vitro
COND: human, hela cells, % viability
# viability at 28.5 h, 10 µM annotations
# output: bare number, implied unit %

Solved cases below.
[[record]]
compound = "O=C(O)/C=C\\C(=O)Nc1ccc(Cl)c(NC(=O)Cc2ccccc2)c1 [CBK263955]"
measured_result = 93.7

[[record]]
compound = "OC(c1ccc2c(c1)OCO2)C1CCCCC1N1CCCCCC1 (centres unmarked) [CBK022779C]"
measured_result = 100

[[record]]
compound = "Nc1nc2c(sc(=O)n2[C@@H]2O[C@H](CO)[C@H](O)C2O)c(=O)[nH]1 (some centres unmarked) [CBK201286]"
measured_result = 96

[[record]]
compound = "COc1ccccc1CN1CC[C@H]2NC(=O)CNC(=O)C3(C/C=C/C[C@H]2C1)CCN(C(C)=O)CC3 [CBK292107]"
measured_result = 111


Data request: Any idea what viability at 28.5 h, 10 µM was measured for O=C(Nc1ccc2c(c1)OCCO2)c1cnccn1 [CBK220830] ?
Data returned: 92.8

* * *

# viability at 28.5 h, 10 µM annotations
ASSAY NOTES: in vitro
COND: human, hela cells, % viability
# output: bare number, implied unit %

Solved cases below.
[[record]]
molecule = "c1ccc(-c2cc(CC3(NCc4cccnc4)COC3)no2)nc1"
measured_result = 83.5

[[record]]
molecule = "CCC(CN1CCN(C)CC1)NC(=O)Cc1coc2cc(C)ccc12 (stereo not drawn)"
measured_result = 102

[[record]]
molecule = "COCC(=O)N[C@H]1C[C@H]2C(=O)Nc3ccccc3C(=O)N2C1"
measured_result = 91.7

[[record]]
molecule = "c1cncc(-c2nc(NCCN3CCOCC3)c3ccccc3n2)c1 [CBK264566C]"
measured_result = 91

[[record]]
molecule = "CCN1CCN(C2CCN(Cc3ccccc3[N+](=O)[O-])CC2)CC1 [CBK264631G]"
measured_result = 98.1

[[record]]
molecule = "CCc1c(C(=O)Nc2ccc3nc(C)cn3c2)cnc2cc(O)nn12"
measured_result = 92.7

[[record]]
molecule = "CC(=O)NC(=O)c1cccc(Br)c1"
measured_result = 99.3

[[record]]
molecule = "NC(=O)CSc1nnc(COc2cccc(Cl)c2)n1-c1ccccc1"
measured_result = 88.9


Data request: Any idea what viability at 28.5 h, 10 µM was measured for Cc1c(Nc2cnn(C34CC5CC(CC(CC(=O)O)(C5)C3)C4)c(=O)c2Cl)c(=O)n(-c2ccccc2)n1C ?
Data returned: 89

* * *

ASSAY NOTES: in vitro
COND: human, hela cells, % viability
# note: boundary value 90% maps to Not met; viability at 28.5 h, 10 µM below it maps to Met

[[record]]
molecule = "COc1ccc2c(c1)c(C(=O)N1CC(C)(C)C(C)(O)C1)c(C)n2C (stereo not drawn)"
class = "Met"

[[record]]
molecule = "Cc1ccc(N(CC(=O)Nc2ccc(C)cc2C)S(=O)(=O)N2CCCC2)cc1"
class = "Not met"

[[record]]
molecule = "COc1ccc(CN2C(=O)COC[C@@H]2[C@H](O)c2ccc(NC(C)=O)cc2)cc1"
class = "Not met"

[[record]]
molecule = "O=C(Nc1ccccc1)C(N1CCCCC1)N1CCCCC1"
class = "Not met"

[[record]]
molecule = "CS(=O)(=O)N1CCCC(C(=O)Nc2nccs2)C1 (stereo not drawn)"
class = "Not met"


Proceed to the following item.
Data request: Hi there! Is viability at 28.5 h, 10 µM for CCN(CC)CCN1C(=O)C(O)=C(C(=O)c2cc3ccccc3o2)C1c1ccccn1 (stereo not drawn) below 90%, do you know?
Data returned: Met

* * *

ASSAY NOTES: in vitro
COND: human, hela cells, % viability
# viability at 28.5 h, 10 µM annotations
Answer with the value and then the unit.

[[record]]
molecule = "O=S(=O)(NCc1cccc(F)c1F)c1cc2c(N3CCNCC3)nccc2s1 [CBK047588C]"
measured_result = "103%"

[[record]]
molecule = "Cc1nn(Cc2cccc(C(=O)Nc3ccc(S(=O)(=O)N4CCCCC4)cc3)c2)c(C)c1Cl"
measured_result = "81.9%"


Data request: Any idea what viability at 28.5 h, 10 µM was measured for CN1CCCC(Cc2cc(-c3ccccc3)no2)(C(=O)N(C)C)C1 (centres unmarked) ?
Data returned: 102%

Data request: Any idea what viability at 28.5 h, 10 µM was measured for Cc1cc(Br)cc(C)c1NC(=O)CSc1nnc(COc2ccccc2Cl)o1 ?
Data returned: 93%

Data request: Any idea what viability at 28.5 h, 10 µM was measured for O=C(c1c(NS(=O)(=O)c2cccc3cccnc23)sc2c1CCCC2)N1CCOCC1 ?
Data returned: 84.2%

Data request: Any idea what viability at 28.5 h, 10 µM was measured for Cc1cc(=O)oc2c1c(C)nn2-c1nn[nH]n1 ?
Data returned: 91%

Data request: Any idea what viability at 28.5 h, 10 µM was measured for CC(=O)NCCn1cc2c(n1)[C@H]1CN(C(=O)CC(C)(C)C)C[C@H]1CC2 ?
Data returned: 93.8%

Data request: Any idea what viability at 28.5 h, 10 µM was measured for COc1cncc(-c2cncc(Nc3ccccc3)n2)c1 ?
Data returned: 113%

Data request: Any idea what viability at 28.5 h, 10 µM was measured for CS(=O)(=O)N1CCN(c2ccccc2NC(=O)COc2ccc(Cl)cc2)CC1 ?
Data returned: 94.7%

Data request: Any idea what viability at 28.5 h, 10 µM was measured for CS(=O)(=O)N(CC(=O)Nc1ccc(C(F)(F)F)cc1)Cc1ccc(Cl)cc1 ?
Data returned: 99.7%
